# tgt: B-Raf V600E/T529I (Homo sapiens, UniProt P15056, T529I/V600E)
# Sequence (P15056 whole entry T529I/V600E): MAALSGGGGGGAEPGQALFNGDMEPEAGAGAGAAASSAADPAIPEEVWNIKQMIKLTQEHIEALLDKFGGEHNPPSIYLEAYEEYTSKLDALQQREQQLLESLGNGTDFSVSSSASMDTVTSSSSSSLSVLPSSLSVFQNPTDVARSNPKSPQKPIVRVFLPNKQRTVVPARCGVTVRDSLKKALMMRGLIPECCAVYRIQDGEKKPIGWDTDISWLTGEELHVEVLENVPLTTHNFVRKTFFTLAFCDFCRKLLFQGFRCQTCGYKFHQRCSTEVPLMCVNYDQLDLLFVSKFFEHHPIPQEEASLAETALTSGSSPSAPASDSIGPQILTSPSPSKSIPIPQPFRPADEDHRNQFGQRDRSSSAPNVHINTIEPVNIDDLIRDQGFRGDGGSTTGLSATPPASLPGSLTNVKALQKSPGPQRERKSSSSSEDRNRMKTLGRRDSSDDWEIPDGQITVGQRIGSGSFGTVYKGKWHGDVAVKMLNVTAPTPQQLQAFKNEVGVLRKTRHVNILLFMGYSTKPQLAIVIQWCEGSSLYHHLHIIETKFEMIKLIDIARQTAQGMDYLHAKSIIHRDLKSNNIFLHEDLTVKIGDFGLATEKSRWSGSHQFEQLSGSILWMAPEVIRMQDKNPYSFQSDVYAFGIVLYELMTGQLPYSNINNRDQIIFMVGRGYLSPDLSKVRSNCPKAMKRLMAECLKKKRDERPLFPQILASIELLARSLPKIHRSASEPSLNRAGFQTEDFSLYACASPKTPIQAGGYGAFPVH
# test-protocol: Kinase activity assay, B-Raf V600E/T529I
# experimental-conditions: under the test conditions employed; read-out: activity toward kinase B-Raf V600E/T529I, IC50

smiles	tgt	IC50
O=C(c1c(F)ccc(NS(=O)(=O)c2ccc3oc(=O)ccc3c2)c1F)c1c[nH]c2ncc(Cl)cc12	B-Raf V600E/T529I (Homo sapiens, UniProt P15056, T529I/V600E)	≤ 10 µM
O=C(c1c(F)ccc(NS(=O)(=O)c2ccc(-c3cnco3)s2)c1F)c1c[nH]c2ncc(Cl)cc12	B-Raf V600E/T529I (Homo sapiens, UniProt P15056, T529I/V600E)	≤ 10 µM
O=C(c1c(F)ccc(NS(=O)(=O)c2ccc(-c3ccno3)s2)c1F)c1c[nH]c2ncc(Cl)cc12	B-Raf V600E/T529I (Homo sapiens, UniProt P15056, T529I/V600E)	≤ 10 µM

* * *

# tgt: B-Raf V600E (Homo sapiens, UniProt P15056, V600E)
# Sequence (P15056 whole entry V600E): as the sequence (P15056 whole entry T529I/V600E) above, with I529T counted along it
# test-protocol: Kinase activity assay, B-Raf V600E
# Format: biochemical
# experimental-conditions: under the test conditions employed; read-out: activity toward kinase B-Raf V600E, IC50
pIC50: −log10 of the molar value.
pIC50 listing for selected molecules.

molecule	pIC50
O=C(c1c(F)ccc(NS(=O)(=O)c2ccc3nsnc3c2)c1F)c1c[nH]c2ncc(Cl)cc12 [Compound P-0013]	≥ 5.00
Cc1cnc2[nH]cc(C(=O)c3c(F)ccc(NS(=O)(=O)c4ccc(C(F)(F)F)cc4)c3F)c2c1 [Compound P-0030]	≥ 5.00
Cc1ccc(S(=O)(=O)Nc2ccc(F)c(C(=O)c3c[nH]c4ncc(Cl)cc34)c2F)s1 [Compound P-0028]	≥ 5.00
N#Cc1cnc2[nH]cc(C(=O)c3c(F)ccc(NS(=O)(=O)c4ccc(C(F)(F)F)cc4)c3F)c2c1 [Compound P-0031]	≥ 5.00
O=C(c1c(F)ccc(NS(=O)(=O)c2cccc(OC(F)F)c2)c1F)c1c[nH]c2ncc(Cl)cc12 [Compound P-0016]	≥ 5.00
CCCc1ccc(S(=O)(=O)Nc2ccc(F)c(C(=O)c3c[nH]c4ncc(-c5cnn(C)c5)cc34)c2F)cc1 [Compound P-0021]	≥ 5.00
O=C(c1c(F)ccc(NS(=O)(=O)c2ccc3ncsc3c2)c1F)c1c[nH]c2ncc(Cl)cc12 [Compound P-0009]	≥ 5.00

* * *

pIC50 tested on Src (Homo sapiens): recorded values
Sequence (P12931 whole entry): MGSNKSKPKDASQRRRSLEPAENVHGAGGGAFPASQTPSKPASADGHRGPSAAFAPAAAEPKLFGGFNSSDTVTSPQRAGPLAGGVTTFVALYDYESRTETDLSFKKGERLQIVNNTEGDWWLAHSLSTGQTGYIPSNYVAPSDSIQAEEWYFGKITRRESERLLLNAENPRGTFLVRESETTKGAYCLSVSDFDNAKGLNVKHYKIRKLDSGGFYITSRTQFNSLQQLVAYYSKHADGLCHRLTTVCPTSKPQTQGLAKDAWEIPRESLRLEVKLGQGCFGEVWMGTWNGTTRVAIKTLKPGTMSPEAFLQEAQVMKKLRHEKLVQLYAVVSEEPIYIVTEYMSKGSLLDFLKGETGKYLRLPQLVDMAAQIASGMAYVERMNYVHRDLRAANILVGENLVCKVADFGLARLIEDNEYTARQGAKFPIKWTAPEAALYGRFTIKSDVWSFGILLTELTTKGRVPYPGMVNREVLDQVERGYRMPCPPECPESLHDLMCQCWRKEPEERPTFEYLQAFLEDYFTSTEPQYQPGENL
pIC50: −log10 of the molar value.

smiles	tgt	pIC50
COc1cnc2[nH]cc(C(=O)c3c(F)ccc(NS(=O)(=O)c4ccccn4)c3F)c2c1	Src (Homo sapiens)	≥ 5.00
Cc1c[nH]c(-c2cnc3[nH]cc(C(=O)c4c(F)ccc(NS(=O)(=O)c5ccc(C(C)C)cc5)c4F)c3c2)n1	Src (Homo sapiens)	≥ 5.00
CC(C)c1ccc(S(=O)(=O)Nc2ccc(F)c(C(=O)c3c[nH]c4ncc(-c5cnn(C)c5)cc34)c2F)cc1	Src (Homo sapiens)	≥ 5.00
Cc1cc(S(=O)(=O)Nc2ccc(F)c(C(=O)c3c[nH]c4ncc(Cl)cc34)c2F)c(C(F)(F)F)o1	Src (Homo sapiens)	≥ 5.00
Cn1cc(S(=O)(=O)Nc2ccc(F)c(C(=O)c3c[nH]c4ncc(Cl)cc34)c2F)c(C(F)(F)F)n1	Src (Homo sapiens)	≥ 5.00
Cn1ccc(S(=O)(=O)Nc2ccc(F)c(C(=O)c3c[nH]c4ncc(Cl)cc34)c2F)n1	Src (Homo sapiens)	≥ 5.00
CCCc1ccc(S(=O)(=O)Nc2ccc(F)c(C(=O)c3c[nH]c4ncc(-c5ncc(C)[nH]5)cc34)c2F)cc1	Src (Homo sapiens)	≥ 5.00
Cc1cnc(-c2cnc3[nH]cc(C(=O)c4c(F)ccc(NS(=O)(=O)c5ccc(C(F)(F)F)cc5)c4F)c3c2)[nH]1	Src (Homo sapiens)	≥ 5.00
O=C(O)c1cccc(S(=O)(=O)Nc2ccc(F)c(C(=O)c3c[nH]c4ncc(Cl)cc34)c2F)c1	Src (Homo sapiens)	≥ 5.00
